Kindly state cell viability for each of the entries shown.
- Tested on: MV4-11
- test description: cell viability (% survival relative to DMSO control, bortezomib = 0%); higher = less cytotoxic
- experimental conditions: 1 nM; 72 h
One number for each entry, in %.

Here are 5 molecules together with their reported answers.
| molecule | cell viability, % |
| --- | --- |
| O=C1O/C(=C/Br)CCC1c1cccc2ccccc12 (stereo not drawn) | 99 |
| Cc1ccccc1C(C(=O)NC1CCCCC1)N(C(=O)Cn1ccnc1C)c1cccc(F)c1 (stereo not drawn) | 94 |
| CC(C)c1onc(-c2c(Cl)cccc2Cl)c1COc1ccc(/C=C/c2cccc(C(=O)O)c2)c(Cl)c1 | 110 |
| CCOP(=O)(OCC)C(=Cc1cc(C(C)(C)C)c(O)c(C(C)(C)C)c1)P(=O)(OCC)OCC | 94.2 |
| CCC(=O)N1CCN(c2ccc(-n3c(=O)ccc4cnc5ccc(-c6cnc7ccccc7c6)cc5c43)cc2C(F)(F)F)CC1 | 88.9 |

Please look at the items below and tell me cell viability for each one, in order.
1. O=C(C1CC1)N1CC[C@@H](C=C2NNC(=O)N2c2ccc(-c3ccc4occc4c3)cc2)C1
2. CN(C)c1cc(NC(=O)CNC(C)(C)C)c(O)c2c1C[C@H]1C[C@H]3[C@H](N(C)C)C(=O)C(C(N)=O)C(=O)[C@@]3(O)C(=O)C1C2=O (stereo partly drawn)
3. CCCCN1C[C@H](O)[C@@H](O)[C@H](O)[C@H]1CO

Result:
1: 88.1; 2: 117; 3: 99.2
